Assay System: Delta-aminolevulinic acid dehydratase (Homo sapiens)
Sequence (P13716 whole entry): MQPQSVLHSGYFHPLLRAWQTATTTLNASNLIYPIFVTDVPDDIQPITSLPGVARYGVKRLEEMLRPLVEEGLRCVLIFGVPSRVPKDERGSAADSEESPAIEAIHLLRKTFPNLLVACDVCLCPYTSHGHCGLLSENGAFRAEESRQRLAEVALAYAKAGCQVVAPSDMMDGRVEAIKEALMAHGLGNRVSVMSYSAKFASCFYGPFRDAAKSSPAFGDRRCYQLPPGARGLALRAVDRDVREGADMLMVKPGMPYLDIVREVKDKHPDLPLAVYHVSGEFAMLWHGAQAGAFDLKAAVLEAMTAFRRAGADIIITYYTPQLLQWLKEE
Assay Explanation: Inhibition of human ALADH after 20 mins
Calls of active or inactive are those of the source. No cut-off for these calls is given here.
Endpoint: inhibition

>>> result("O=C(N[C@@H](Cc1ccccc1)C(=O)O)c1cccs1")
"inactive"
>>> result("CC(NC(=O)Cc1ccccc1C(=O)O)C1Nc2ccccc2N1 (stereo not given)")
"inactive"
>>> result("O=C(O)c1ccc2c(c1)n(CC1CCNC1)c(=O)n2Cc1ccc(F)cc1 (stereo not given)")
"inactive"
>>> result("Cn1c(CCNC(=O)c2cccs2)nc2cc([N+](=O)[O-])ccc21")
"inactive"
>>> result("O=C(O)c1ccc2c(c1)n(CCN1CCCC1)c(=O)n2Cc1ccc(F)cc1")
"> 25%"
>>> result("CCn1c(CSc2ccc(NC(C)=O)cc2)nc2cc(C(=O)O)ccc21")
"inactive"
>>> result("O=C(O)c1ccc2c(c1)n(Cc1ncccn1)c(=O)n2Cc1ccc(F)cc1")
"> 25%"
>>> result("CCn1c(CSc2nnc(-c3cccs3)n2Cc2ccccc2)nc2cc(C(=O)O)ccc21")
"inactive"
>>> result("Cc1ccsc1C(=O)NCCc1ccc(C(=O)O)cc1")
"inactive"
>>> result("O=C(O)CCNC(=O)C(Cc1ccccc1)NC(=O)c1cccs1 (stereo not given)")
"inactive"

###

Assay System: Delta-aminolevulinic acid dehydratase (Homo sapiens)
Assay Explanation: Inhibition of human ALADH after 20 mins
Experimental Setup: read-out: IC50
Endpoint: IC50 (µM)

>>> result_number("O=C(O)c1cc(-c2ccc(Cl)cc2)cs1")
85.3
>>> result_number("O=C(O)c1cc(-c2ccc(Br)cc2)cs1")
99.7
>>> result_number("O=C(O)c1ccc2c(c1)nc(CCNC(=O)c1cccs1)n2Cc1cccc(C(F)(F)F)c1")
740
>>> result_number("O=C(O)c1ccc2c(c1)n(Cc1ncccn1)c(=O)n2Cc1ccc(F)cc1")
119
